- target-desc: pEGFR (Tyr1068) in PC-9 cells (Ex19Del) (Homo sapiens (Human), UniProt P00533, DEL746-750)
- Sequence (P00533 other isoform, or with tags, fused parts or gaps del 746-750): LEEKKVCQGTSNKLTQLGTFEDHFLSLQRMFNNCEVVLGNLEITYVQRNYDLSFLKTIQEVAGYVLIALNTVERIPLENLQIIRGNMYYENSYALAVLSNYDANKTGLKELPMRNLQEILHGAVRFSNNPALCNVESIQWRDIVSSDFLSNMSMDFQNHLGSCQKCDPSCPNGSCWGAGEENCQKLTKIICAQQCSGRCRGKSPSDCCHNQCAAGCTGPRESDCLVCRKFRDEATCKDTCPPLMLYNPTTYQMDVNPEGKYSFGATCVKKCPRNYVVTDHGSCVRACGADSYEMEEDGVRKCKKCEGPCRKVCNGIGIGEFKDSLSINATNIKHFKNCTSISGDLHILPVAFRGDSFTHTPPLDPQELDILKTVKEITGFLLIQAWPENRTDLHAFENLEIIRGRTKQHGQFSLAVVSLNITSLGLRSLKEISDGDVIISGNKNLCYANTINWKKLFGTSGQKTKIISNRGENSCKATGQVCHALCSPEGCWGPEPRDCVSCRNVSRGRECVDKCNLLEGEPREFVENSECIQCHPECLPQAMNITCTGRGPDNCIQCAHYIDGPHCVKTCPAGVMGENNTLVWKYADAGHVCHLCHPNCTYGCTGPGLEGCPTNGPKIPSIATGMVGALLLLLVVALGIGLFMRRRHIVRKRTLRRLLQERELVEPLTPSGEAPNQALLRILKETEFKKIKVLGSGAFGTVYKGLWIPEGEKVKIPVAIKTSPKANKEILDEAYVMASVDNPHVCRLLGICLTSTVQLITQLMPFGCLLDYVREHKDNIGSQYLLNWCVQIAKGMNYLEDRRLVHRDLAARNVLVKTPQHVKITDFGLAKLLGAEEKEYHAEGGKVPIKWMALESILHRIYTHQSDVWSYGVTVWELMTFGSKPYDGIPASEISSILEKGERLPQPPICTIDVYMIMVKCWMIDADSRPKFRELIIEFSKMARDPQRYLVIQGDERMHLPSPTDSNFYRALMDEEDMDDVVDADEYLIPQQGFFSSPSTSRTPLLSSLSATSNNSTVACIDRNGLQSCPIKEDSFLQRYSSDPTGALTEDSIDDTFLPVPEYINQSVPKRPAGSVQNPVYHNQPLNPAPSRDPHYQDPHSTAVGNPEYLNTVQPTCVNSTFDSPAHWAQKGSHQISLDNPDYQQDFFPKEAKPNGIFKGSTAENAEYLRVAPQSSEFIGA
- method-summary: PC-9 pEGFR AlphaLISA assay
- assay-setup: 4 hours incubation, p-EGFR (Tyr1068) AlphaLISA, read-out: Ext pEGFR_PC-9 Ex19Del IC50
test-readout: IC50 (nM)

See these solved cases before continuing.
In [3]: df
Out[3]:
                                   molecule                               target_desc  unit_info  experimental_value
0  COc1cc2ncnc(-c3cn(C)nc3-c3ccccc3)c2cc1NC(=O)C(C)(C)N(C)C [Example 246]  pEGFR (Tyr1068) in PC-9 cells (Ex19Del) (Homo sapiens (Human), UniProt P00533, DEL746-750)         nM                 7.8
1  COc1cc2ncnc(-c3cn(C)nc3-c3ccccc3)c2cc1NC(=O)c1cncc(F)c1 [Example 327]  pEGFR (Tyr1068) in PC-9 cells (Ex19Del) (Homo sapiens (Human), UniProt P00533, DEL746-750)         nM                10.4
2  COc1cc2ncnc(-c3cn(C)nc3-c3ccccc3)c2cc1NC(=O)c1ccc(F)cn1 [Example 324]  pEGFR (Tyr1068) in PC-9 cells (Ex19Del) (Homo sapiens (Human), UniProt P00533, DEL746-750)         nM                 2.6
3  CCOc1cc2ncnc(-c3cn(C)nc3-c3ccccc3)c2cc1NC(=O)c1ccc(C2CC2)nc1 [Example 297]  pEGFR (Tyr1068) in PC-9 cells (Ex19Del) (Homo sapiens (Human), UniProt P00533, DEL746-750)         nM                 0.9
4  COc1cc2ncnc(-c3cn(C)nc3-c3ccccc3)c2cc1NC(=O)C1CC1 [Example 344]  pEGFR (Tyr1068) in PC-9 cells (Ex19Del) (Homo sapiens (Human), UniProt P00533, DEL746-750)         nM                 0.8

[A] COCc1cc2c(-c3cn(C)nc3-c3ccccc3)ncnc2cc1OC [Example 120]
[B] COc1cc2ncnc(-c3cn(C)nc3-c3ccccc3)c2cc1NC(=O)c1cnn(CC(F)(F)F)c1 [Example 203]
stdin: A or B : whose IC50 is greater? Write down the label attached to your selection.
stdout: A

[a] COc1cc2ncnc(-c3cn(C)nc3-c3ccc(F)cc3)c2nc1NC(=O)[C@]12COC[C@H]1C2 (single isomer, unassigned) [Example 381]
[b] COc1cc2ncnc(-c3cn(C)nc3-c3ccccc3)c2nc1O[C@@H](C)c1cocn1 [Example 39]
stdin: Looking only at measured IC50, which entry is lower, a or b ? Write down the label attached to your selection.
stdout: a

[I] COc1cc2ncnc(-c3cn(CC(F)F)nc3-c3ccccc3)c2cc1NC(=O)c1cnsc1 [Example 271]
[II] CCOc1cc2ncnc(-c3cn(C(C)C)nc3-c3ccccc3)c2cc1CO [Example 125]
[III] COc1cc2ncnc(-c3cn(C)nc3-c3ccccc3)c2cc1[C@H](C)O (single isomer, unassigned) [Example 116]
stdin: Rank ascending by IC50. Output the labels ranked as instructed.
stdout: I, II, III
(I: 1 nM, II: 2.1 nM, III: 11.5 nM)

[a] COc1cc2ncnc(-c3cn(C)nc3-c3ccccc3)c2cc1-c1cnn(CCN(C)C)c1 [Example 233]
[b] Cn1cc(-c2ncnc3cc(C#CCN4CCOCC4)c(NC(=O)C45CC(C4)C5)nc23)c(-c2ccccc2)n1 [Example 454]
stdin: a or b : whose IC50 is greater? Write down the label attached to your selection.
stdout: b

###

- target-desc: pEGFR (Tyr1068) in PC-9 cells (Ex19Del) (Homo sapiens (Human), UniProt P00533, DEL746-750)
- method-summary: PC-9 pEGFR AlphaLISA assay
- assay-setup: 4 hours incubation, p-EGFR (Tyr1068) AlphaLISA, read-out: Ext pEGFR_PC-9 Ex19Del IC50
test-readout: IC50 (nM)

In [3]: df
Out[3]:
                                   molecule                               target_desc  unit_info  experimental_value
0  COc1cc2ncnc(-c3cn(C)nc3-c3ccccc3)c2cc1O[C@H]1CCOC1  pEGFR (Tyr1068) in PC-9 cells (Ex19Del) (Homo sapiens (Human), UniProt P00533, DEL746-750)         nM                 6.2
1  COc1cc2ncnc(-c3cn(C)nc3-c3ccccc3)c2cc1N1CCC[C@H](O)C1  pEGFR (Tyr1068) in PC-9 cells (Ex19Del) (Homo sapiens (Human), UniProt P00533, DEL746-750)         nM                 6.4
2  COc1cc2ncnc(-c3cn(C)nc3-c3ccccc3)c2cc1NC(=O)c1cnn(C(F)(F)F)c1C  pEGFR (Tyr1068) in PC-9 cells (Ex19Del) (Homo sapiens (Human), UniProt P00533, DEL746-750)         nM                 2.8
3  Cc1ncsc1C(=O)Nc1cc2c(-c3cn(C)nc3-c3ccccc3)ncnc2cc1OCCN(C)C  pEGFR (Tyr1068) in PC-9 cells (Ex19Del) (Homo sapiens (Human), UniProt P00533, DEL746-750)         nM                 8.8

[a] CC(C)Oc1cc2ncnc(-c3cn(C)nc3-c3ccccc3)c2cc1[C@H](C)O (single isomer, unassigned)
[b] Cn1cc(-c2ncnc3cc(OC4CC4)c(NC(=O)C4(C(F)(F)F)CC4)nc23)c(-c2ccccc2)n1
stdin: Looking only at measured IC50, which entry is lower, a or b ? Write down the label attached to your selection.
stdout: b
(b: 1.7 nM, a: 11.2 nM)

###

- target-desc: pEGFR (Tyr1068) in PC-9 cells (Ex19Del) (Homo sapiens (Human), UniProt P00533, DEL746-750)
- method-summary: PC-9 pEGFR AlphaLISA assay
- assay-setup: 4 hours incubation, p-EGFR (Tyr1068) AlphaLISA, read-out: Ext pEGFR_PC-9 Ex19Del IC50
test-readout: IC50 (nM)

See these solved cases before continuing.
                                   compound                               target_desc  test_readout  experimental_value
0  COc1cc2ncnc(-c3cn(C)nc3-c3ccccc3)c2cc1NC(=O)c1ccnc(C)c1  pEGFR (Tyr1068) in PC-9 cells (Ex19Del) (Homo sapiens (Human), UniProt P00533, DEL746-750)          IC50                 1.7
1  CCOc1cc2ncnc(-c3cn(C)nc3-c3ccccc3)c2nc1NC(=O)[C@]12COC[C@H]1C2 (single isomer, unassigned)  pEGFR (Tyr1068) in PC-9 cells (Ex19Del) (Homo sapiens (Human), UniProt P00533, DEL746-750)          IC50                 0.8
2  C[C@@H](O)c1cc2c(-c3cn(CC(F)F)nc3-c3ccccc3)ncnc2cc1-c1cnn(C)c1 (single isomer, unassigned)  pEGFR (Tyr1068) in PC-9 cells (Ex19Del) (Homo sapiens (Human), UniProt P00533, DEL746-750)          IC50                 2.7
3  COc1cc2ncnc(-c3cn(C)nc3-c3ccccc3)c2cc1O[C@@H](C)C1COC1  pEGFR (Tyr1068) in PC-9 cells (Ex19Del) (Homo sapiens (Human), UniProt P00533, DEL746-750)          IC50                 4.8

[I] COc1cc2ncnc(-c3cn(C4CC4)nc3-c3ccccc3)c2nc1NC(=O)[C@@]12C[C@@H]1CN(C)C2 (single isomer, unassigned)
[II] COc1cc2ncnc(-c3cn(C)nc3-c3ccccc3)c2cc1NC(=O)C1(C)CCC1
[III] COc1cc2ncnc(-c3cn(C)nc3-c3ccccc3)c2nc1-c1ccc2c(c1)CNC2=O
stdin: Rank ascending by IC50. Output the labels ranked as instructed.
stdout: I, III, II

###

- target-desc: pEGFR (Tyr1068) in PC-9 cells (Ex19Del) (Homo sapiens (Human), UniProt P00533, DEL746-750)
- method-summary: PC-9 pEGFR AlphaLISA assay
- assay-setup: 4 hours incubation, p-EGFR (Tyr1068) AlphaLISA, read-out: Ext pEGFR_PC-9 Ex19Del IC50
pIC50: −log10 of the molar value.
test-readout: pIC50

>>> df
                                   molecule  experimental_value
0  COc1cc2ncnc(-c3cn(C)nc3-c3ccccc3)c2cc1OC(=O)N1CCN2CCCC2C1 (stereo in doubt) [Example 85]                7.88

[I] COc1cc2ncnc(-c3cn(C)nc3-c3ccc(Cl)cc3)c2nc1NC(=O)C12CC(N(C)C)(C1)C2
[II] COc1cc2ncnc(-c3cn(C)nc3-c3ccccc3)c2nc1NC(=O)[C@H]1C[C@H]2C[C@H]2N1C
[III] COc1cc2ncnc(-c3cn(C)nc3-c3ccccc3)c2cc1NC(=O)[C@@H]1CCN(C)C[C@H]1F (racemic) [Example 339]
stdin: Sort these molecules on pIC50 so the largest reading comes first. Output the labels ranked as instructed.
stdout: II, III, I
